system name: human orexin 2 receptor (Homo sapiens)
Construct: stably expressing the full-length human orexin 2 receptor; expressed in transfected cells; host or cells: CHO-K1 (CHO-K1/hOX2), co-expressing aequorin
Sequence (O43614 whole entry): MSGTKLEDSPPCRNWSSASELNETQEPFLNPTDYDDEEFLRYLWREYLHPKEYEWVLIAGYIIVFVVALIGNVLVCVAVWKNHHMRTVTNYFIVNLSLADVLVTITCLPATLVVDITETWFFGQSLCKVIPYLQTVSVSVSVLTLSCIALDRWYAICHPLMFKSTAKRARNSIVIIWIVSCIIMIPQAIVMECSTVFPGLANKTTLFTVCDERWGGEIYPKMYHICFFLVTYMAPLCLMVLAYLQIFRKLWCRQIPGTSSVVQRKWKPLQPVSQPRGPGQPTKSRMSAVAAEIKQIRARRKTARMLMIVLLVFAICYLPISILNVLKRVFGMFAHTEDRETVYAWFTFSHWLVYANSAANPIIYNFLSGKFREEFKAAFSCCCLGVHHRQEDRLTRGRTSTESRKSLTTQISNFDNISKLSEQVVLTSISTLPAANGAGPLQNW
experiment notes: Assay B: In vitro testing of OX2R potency: OX2R IP1 (HTRF, CHO-K1/hOX2 cells, Orexin A as agonist)
Format: cell-based
test settings: Orexin A 0.5 nM
Quick reference for Kb among some compounds
Give the number; nM is assumed, so skip it.

These solved cases illustrate the format of a correct answer.
CCN(C(=O)c1ccc(OC)cc1-c1ncccn1)[C@@H](C)COc1ccc(C(F)(F)F)cn1 [Example 118] :: 92
CCN(C(=O)c1cc(OC)ccc1-n1nccn1)[C@@H](C)COc1ccc(C(F)(F)F)cn1 [Example 15] :: 15
CCN(C(=O)c1ccc(F)cc1-n1nccn1)[C@@H](C)COc1ccc(C(F)(F)F)cn1 [Example 1] :: 58

Now consider a different compound.
q: Tell me measured Kb for CCN(C(=O)c1ccc(C)cc1-c1ncccn1)[C@@H](C)COc1ccc(C(F)(F)F)cn1 [Example 101] please.
a: 30

---

experiment notes: Assay C: Metabolic stability in human liver microsomes (Human MST)
Assay type: in vitro ADME
test settings: pooled human liver microsomes, pH 7.6; human liver microsomes 1 mg/mL, compound 1 μM, 37° C., NADPH; read-out: Human MST t1/2
Listed here: items and their measured half-life at 1 μM.
Express the result in min but write the number alone.

q: Look up and state reported half-life at 1 μM for CCN(C(=O)c1cccc(F)c1-n1nccn1)[C@@H](C)COc1ccc(F)c(C(F)(F)F)n1 [Example 133]
a: 21

q: Identify measured half-life at 1 μM corresponding to CCN(C(=O)c1ccc(F)cc1-n1nccn1)[C@@H](C)COc1ncc(C(F)(F)F)cc1F [Example 48]
a: 31

q: # return recorded half-life at 1 μM for entry CCN(C(=O)c1ccc(OC)cc1-n1nccn1)[C@@H](C)COc1ncc(C(F)(F)F)cc1F [Example 131]
a: 11

q: Specify measured half-life at 1 μM for CC[C@@H](CNc1ccc(Cl)cn1)N(C)C(=O)c1cc(C)ccc1-n1nccn1 [Ex 1 in WO2016/034882, reference compound] .
a: 5

q: Fill in reported half-life at 1 μM for this entry: CCN(C(=O)c1ccc(OC)cc1-c1ncccn1)[C@@H](C)COc1ccc(C(F)(F)F)cn1 [Example 118]
a: 15

q: # return recorded half-life at 1 μM for entry CCN(C(=O)c1cccc(Cl)c1-n1nccn1)[C@@H](C)COc1ncc(C(F)(F)F)cc1F [Example 49]
a: 81

---

experiment notes: Assay C: Metabolic stability in human liver microsomes (Human MST)
Format: in vitro ADME
test settings: pooled human liver microsomes, pH 7.6; human liver microsomes 1 mg/mL, compound 1 μM, 37° C., NADPH; read-out: Human MST t1/2
Experimental: C. Assessment of Metabolic Stability in Human Liver Microsomes (Human MST) The metabolic stability of the compounds according to the invention may be investigated as follows: The metabolic degradation of the test compound is assayed at 37° C. with pooled human liver microsomes. […] The half-life (t1/2) is determined by the slope of the semi-logarithmic plot of the concentration-time profile.
Below, each entry is listed alongside its reported half-life at 1 μM.

Example results:
CCN(C(=O)c1cccc(F)c1-c1nnc(C)o1)[C@@H](C)COc1ncc(C(F)(F)F)cc1F :: 26 min
CCN(C(=O)c1cc(F)ccc1-n1nccn1)[C@@H](C)COc1ccc(C(F)(F)F)cn1 :: 62 min
CCN(C(=O)c1cccc(F)c1-n1nccn1)[C@@H](C)COc1ccc(Br)cn1 :: 62 min

Next:
q: Using the record for CCN(C(=O)c1cccc(C)c1-c1nnc(C)o1)[C@@H](C)COc1ccc(C(F)(F)F)cn1 , state its measured half-life at 1 μM.
a: 20 min

These data points were gathered from patent US10787432B2.
